study_target: human kinase Mps-1 (Homo sapiens)
Construct: N-terminally GST-tagged human full length recombinant Mps-1 kinase
Sequence (P33981 1-857): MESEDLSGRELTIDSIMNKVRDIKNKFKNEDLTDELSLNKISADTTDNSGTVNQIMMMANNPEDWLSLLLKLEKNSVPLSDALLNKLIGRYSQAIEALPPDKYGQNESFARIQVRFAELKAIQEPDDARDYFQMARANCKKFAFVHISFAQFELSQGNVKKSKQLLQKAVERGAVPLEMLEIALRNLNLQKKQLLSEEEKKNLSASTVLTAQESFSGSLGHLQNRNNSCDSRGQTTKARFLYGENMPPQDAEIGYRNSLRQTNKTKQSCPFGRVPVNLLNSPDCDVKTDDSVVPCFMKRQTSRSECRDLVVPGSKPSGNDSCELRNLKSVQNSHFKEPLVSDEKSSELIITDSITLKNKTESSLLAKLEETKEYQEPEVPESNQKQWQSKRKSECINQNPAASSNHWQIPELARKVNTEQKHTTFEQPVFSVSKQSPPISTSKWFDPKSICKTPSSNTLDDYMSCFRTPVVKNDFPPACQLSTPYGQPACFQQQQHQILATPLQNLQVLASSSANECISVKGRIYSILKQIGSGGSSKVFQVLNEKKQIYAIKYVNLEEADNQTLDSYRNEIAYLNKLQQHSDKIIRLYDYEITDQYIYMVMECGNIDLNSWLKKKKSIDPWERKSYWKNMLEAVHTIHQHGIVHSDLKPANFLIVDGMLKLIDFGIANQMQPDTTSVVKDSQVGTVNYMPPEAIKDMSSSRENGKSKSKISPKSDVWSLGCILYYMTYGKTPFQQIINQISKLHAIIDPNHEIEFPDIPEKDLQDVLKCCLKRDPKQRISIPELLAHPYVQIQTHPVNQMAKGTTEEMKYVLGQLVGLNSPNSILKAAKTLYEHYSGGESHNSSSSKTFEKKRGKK
procedure_details: Mps-1 kinase assay (HTRF)
condition: lowATP; mean; read-out: Mps1 lowATP mean IC50
readout_name: log10(IC50) (log10 of the value in nM)
The figures below represent log10 of IC50, where IC50 is stated in nM.

Worked cases, answers included:
compound: CC(C)CNc1nc2ccccc2n2c(-c3ccc(C(=O)Nc4ccc(S(N)(=O)=O)cc4)cc3)cnc12 [Example 3-9]
readout_name: log10(IC50)
numeric_readout: 3.82
--
compound: Cc1cc2nc(NCCO)c3ncc(-c4ccc(C(=O)NC5CC5)c(Cl)c4)n3c2cc1C [Example 2-179]
readout_name: log10(IC50)
numeric_readout: 2.11
--
compound: CC(=O)NCc1cccc(-c2cnc3c(NCC(C)C)nc4ccccc4n23)c1 [Example 1-44]
readout_name: log10(IC50)
numeric_readout: 4.06
--
compound: CC(C)CNc1nc2ccccc2n2c(-c3ccc4cn[nH]c4c3)cnc12 [Example 1-49]
readout_name: log10(IC50)
numeric_readout: 3.81
--
compound: Cc1cc2nc(NCc3cccnc3)c3ncc(-c4ccc(C(=O)NC5CC5)c(Cl)c4)n3c2cc1C [Example 2-192]
readout_name: log10(IC50)
numeric_readout: 1.55
--
compound: COCCCNc1nc2cc(F)c(F)cc2n2c(-c3ccc(C(=O)NC4CC4)c(Cl)c3)cnc12 [Example 2-139]
readout_name: log10(IC50)
numeric_readout: 3.59

Bench note: what log10(IC50) did CC(C)CNc1nc2ccccc2n2c(-c3ccc(C(=O)Nc4ccn(C)n4)cc3)cnc12 [Example 3-23] show?
3.00

Bench note: what log10(IC50) did N#Cc1ccc2c(c1)nc(NCCO)c1ncc(-c3ccc(C(=O)NC4CC4)c(Cl)c3)n12 [Example 2-235] show?
3.54

Bench note: what log10(IC50) did O=C(NC1CC1)c1ccc(-c2cnc3c(NCCc4ccccc4)nc4ccccc4n23)cc1 [Example 2-8] show?
2.23

Bench note: what log10(IC50) did CCCCNc1nc2cc(C#N)ccc2n2c(-c3ccc(C(=O)NC4CC4)c(Cl)c3)cnc12 [Example 2-243] show?
2.70
